- experiment description: Plasma daprodustat pharmacokinetics in healthy male participants (6 mg oral tablet, 50 μg IV microtracer, 25 mg oral solution)
- Type: in vivo, human
- condition details: male, human; plasma clearance, [14C] 50 μg IV infusion, mean (SD), n = 3; read-out: CL (converted)
- Description: On day 1 of treatment period 1, after an overnight fast of at least 8 hours, each participant took a single 6 mg oral dose of daprodustat; participants continued to fast for < 3 hours when a small amount of food was administered to stimulate bile release for the Entero‐Test. […] Plasma samples collected from period 1 were analyzed for [^14C]‐GSK1278863 by GSK using a validated analytical method, based on protein precipitation, followed by liquid chromatography–AMS analysis. […]
metric: clearance (mL/min)
Answer in mL/min, number only, no unit symbol.

Reported clearance of `O=C(O)CNC(=O)C1C(=O)N(C2CCCCC2)C(=O)N(C2CCCCC2)C1=O` : 322

* * *

- experiment description: Plasma daprodustat pharmacokinetics in healthy male participants (6 mg oral tablet, 50 μg IV microtracer, 25 mg oral solution)
- Assay type: in vivo, human
- condition details: male, human; plasma daprodustat, 6 mg oral tablet, arithmetic mean (SD)
- Description: On day 1 of treatment period 1, after an overnight fast of at least 8 hours, each participant took a single 6 mg oral dose of daprodustat; participants continued to fast for < 3 hours when a small amount of food was administered to stimulate bile release for the Entero‐Test. […] Plasma samples collected from period 1 were analyzed for [^14C]‐GSK1278863 by GSK using a validated analytical method, based on protein precipitation, followed by liquid chromatography–AMS analysis. […]
metric: Cmax
Answer format: value, then unit.

Reported Cmax of `O=C(O)CNC(=O)C1C(=O)N(C2CCCCC2)C(=O)N(C2CCCCC2)C1=O` : 97.3 ng/mL

* * *

- experiment description: Plasma daprodustat pharmacokinetics in healthy male participants (6 mg oral tablet, 50 μg IV microtracer, 25 mg oral solution)
- Type: in vivo, human
- condition details: male, human, plasma, po, 6 mg, plasma daprodustat, 6 mg oral tablet, mean (SD); read-out: AUC0‐inf
metric: AUC (ng·h/mL)
Answer in ng·h/mL, number only, no unit symbol.

Reported AUC of `O=C(O)CNC(=O)C1C(=O)N(C2CCCCC2)C(=O)N(C2CCCCC2)C1=O` : 202

* * *

- experiment description: Plasma daprodustat pharmacokinetics in healthy male participants (6 mg oral tablet, 50 μg IV microtracer, 25 mg oral solution)
- Assay type: in vivo, human
- condition details: male, human; plasma daprodustat, [14C] 50 μg IV infusion over 1 h, arithmetic mean (SD)
metric: Cmax (ng/mL)
Answer in ng/mL, number only, no unit symbol.

Reported Cmax of `O=C(O)CNC(=O)C1C(=O)N(C2CCCCC2)C(=O)N(C2CCCCC2)C1=O` : 2.06

* * *

- experiment description: Plasma daprodustat pharmacokinetics in healthy male participants (6 mg oral tablet, 50 μg IV microtracer, 25 mg oral solution)
- Format: in vivo, human
- condition details: male, human, plasma; [14C] 50 μg IV infusion, mean (SD), n = 3; read-out: Vss
metric: Vd (L)
Answer in L, number only, no unit symbol.

Reported Vd of O=C(O)CNC(=O)C1C(=O)N(C2CCCCC2)C(=O)N(C2CCCCC2)C1=O [Daprodustat] : 14.6

* * *

- experiment description: Plasma daprodustat pharmacokinetics in healthy male participants (6 mg oral tablet, 50 μg IV microtracer, 25 mg oral solution)
- Type: in vivo, human
- condition details: male, human, plasma, po, 6 mg, plasma daprodustat, 6 mg oral tablet, median (range); read-out: tmax
metric: tmax

Reported tmax of O=C(O)CNC(=O)C1C(=O)N(C2CCCCC2)C(=O)N(C2CCCCC2)C1=O [Daprodustat] : ~2 h

* * *

- experiment description: Plasma daprodustat pharmacokinetics in healthy male participants (6 mg oral tablet, 50 μg IV microtracer, 25 mg oral solution)
- Assay type: in vivo, human
- condition details: male, human, plasma, po, 25 mg, plasma daprodustat, [14C] 25 mg oral solution, mean (SD); read-out: AUC0‐t
metric: AUC

Reported AUC of `O=C(O)CNC(=O)C1C(=O)N(C2CCCCC2)C(=O)N(C2CCCCC2)C1=O` : 972 ng·h/mL

* * *

- experiment description: Plasma daprodustat pharmacokinetics in healthy male participants (6 mg oral tablet, 50 μg IV microtracer, 25 mg oral solution)
- Format: in vivo, human
- condition details: male, human, plasma, iv, 50 μg, plasma daprodustat, [14C] 50 μg IV infusion, mean (SD); read-out: AUC0‐t
metric: AUC

Reported AUC of `O=C(O)CNC(=O)C1C(=O)N(C2CCCCC2)C(=O)N(C2CCCCC2)C1=O` : 2.68 ng·h/mL

* * *

- experiment description: Plasma daprodustat pharmacokinetics in healthy male participants (6 mg oral tablet, 50 μg IV microtracer, 25 mg oral solution)
- Assay type: in vivo, human
- condition details: male, human, plasma, po, 25 mg, plasma daprodustat, [14C] 25 mg oral solution, median (range); read-out: tmax
metric: tmax

Reported tmax of O=C(O)CNC(=O)C1C(=O)N(C2CCCCC2)C(=O)N(C2CCCCC2)C1=O [Daprodustat] : ~30 min

* * *

- experiment description: Plasma daprodustat pharmacokinetics in healthy male participants (6 mg oral tablet, 50 μg IV microtracer, 25 mg oral solution)
- Format: in vivo, human
- condition details: male, human, plasma, po, 6 mg, plasma daprodustat, 6 mg oral tablet, mean (SD); read-out: AUC0‐t
metric: AUC (ng·h/mL)
Answer in ng·h/mL, number only, no unit symbol.

Reported AUC of `O=C(O)CNC(=O)C1C(=O)N(C2CCCCC2)C(=O)N(C2CCCCC2)C1=O` : 201

* * *

- experiment description: Plasma daprodustat pharmacokinetics in healthy male participants (6 mg oral tablet, 50 μg IV microtracer, 25 mg oral solution)
- Type: in vivo, human
- condition details: male, human, plasma, iv, 50 μg, plasma daprodustat, [14C] 50 μg IV infusion, mean (SD), n = 3; read-out: AUC0‐inf
metric: AUC (ng·h/mL)
Answer in ng·h/mL, number only, no unit symbol.

Reported AUC of O=C(O)CNC(=O)C1C(=O)N(C2CCCCC2)C(=O)N(C2CCCCC2)C1=O [Daprodustat] : 2.71

* * *

- experiment description: Plasma daprodustat pharmacokinetics in healthy male participants (6 mg oral tablet, 50 μg IV microtracer, 25 mg oral solution)
- Type: in vivo, human
- condition details: male, human; plasma daprodustat, [14C] 25 mg oral solution, mean (SD); read-out: t½ (converted)
- Description: On day 1 of treatment period 1, after an overnight fast of at least 8 hours, each participant took a single 6 mg oral dose of daprodustat; participants continued to fast for < 3 hours when a small amount of food was administered to stimulate bile release for the Entero‐Test. […] Plasma samples collected from period 1 were analyzed for [^14C]‐GSK1278863 by GSK using a validated analytical method, based on protein precipitation, followed by liquid chromatography–AMS analysis. […]
metric: half-life (h)
Answer in h, number only, no unit symbol.

Reported half-life of `O=C(O)CNC(=O)C1C(=O)N(C2CCCCC2)C(=O)N(C2CCCCC2)C1=O` : 2.6

* * *

- experiment description: Plasma daprodustat pharmacokinetics in healthy male participants (6 mg oral tablet, 50 μg IV microtracer, 25 mg oral solution)
- Format: in vivo, human
- condition details: male, human, plasma, po, 25 mg, plasma daprodustat, [14C] 25 mg oral solution, mean (SD); read-out: AUC0‐inf
metric: AUC (ng·h/mL)
Answer in ng·h/mL, number only, no unit symbol.

Reported AUC of O=C(O)CNC(=O)C1C(=O)N(C2CCCCC2)C(=O)N(C2CCCCC2)C1=O [Daprodustat] : 974
